Measured values drawn from patent US20200179428A1 for this set.

Property: EC50; scope: individual compounds
System: replicon cells (1b-Con1)
Experiment: Replicon activity assay (replicon RNA level by real-time RT-PCR, Taqman)
Type: cell-based
Details: Hepatitis C virus, HCV replicon genotype 1b; read-out: EC50 (1b) Range
reportedProperty: EC50

compound | result
CO[C@H](CCO[P@]1(=O)OC[C@H]2O[C@@H](n3ccc(=O)[nH]c3=O)[C@](C)(N)[C@@H]2O1)C(=O)OC(C)C [Compound 45B] | > 10 µM
CCC(CCO[P@@]1(=O)OC[C@H]2O[C@@H](n3ccc(=O)[nH]c3=O)[C@](C)(N)[C@@H]2O1)C(=O)OC(C)C (stereo partly drawn) [Compound 23A] | > 10 µM
C#C[C@@]1(OC(=O)CCC)[C@@H]2O[P@@](=O)(OCC[C@H](C)C(=O)OC(C)C)OC[C@H]2O[C@H]1n1ccc(=O)[nH]c1=O | ≤ 0.25 µM
CC(C)OC(=O)C(C)(C)CO[P@@]1(=O)OC[C@H]2O[C@@H](n3ccc(=O)[nH]c3=O)[C@](C)(C#N)[C@@H]2O1 [Compound 16A] | > 10 µM
CO[C@H](CO[P@@]1(=O)OC[C@H]2O[C@@H](n3ccc(=O)[nH]c3=O)[C@](C)(N)[C@@H]2O1)CC(=O)OC(C)C [Compound 61A] | > 10 µM
CC(C)OC(=O)C1(CCO[P@@]2(=O)OC[C@H]3O[C@@H](n4ccc(=O)[nH]c4=O)[C@](C)(N)[C@@H]3O2)CC1 [Compound 27A] | > 10 µM
CC(CCO[P@]1(=O)OC[C@H]2O[C@@H](n3ccc(=O)[nH]c3=O)[C@](C)(N)[C@@H]2O1)CC(=O)OC(C)C (stereo partly drawn) [Compound 21B] | > 10 µM
C#C[C@]1(C)[C@@H]2O[P@](=O)(OCC(C)CCC(=O)OC(C)C)OC[C@H]2O[C@H]1n1ccc(=O)[nH]c1=O (stereo partly drawn) [Compound 22B] | > 10 µM
C#C[C@]1(C)[C@@H]2O[P@](=O)(OCC(CC(=O)OC(C)C)N(C)C(=O)OC(C)(C)C)OC[C@H]2O[C@H]1n1ccc(=O)[nH]c1=O (stereo partly drawn) [Compound 74B] | > 10 µM
CC(C)OC(=O)C(C)CCOP1(=O)OC[C@H]2O[C@@H](n3cnc4c(N)ncnc43)[C@](C)(Cl)[C@@H]2O1 (single isomer, unassigned) [Compound 35A1] | ≤ 0.25 µM
C#C[C@]1(C)[C@@H]2O[P@@](=O)(OC[C@@H](CC(=O)OC(C)C)OC)OC[C@H]2O[C@H]1n1ccc(=O)[nH]c1=O [Compound 62A] | > 10 µM
C#C[C@]1(C)[C@@H]2O[P@](=O)(OC[C@@H](CC(=O)OC(C)C)OC)OC[C@H]2O[C@H]1n1ccc(=O)[nH]c1=O [Compound 62B] | > 10 µM

----------
Tested on: replicon cells (1b-Con1)
Experiment: Replicon activity assay (replicon RNA level by real-time RT-PCR, Taqman)
Assay type: cell-based
Conditions: Hepatitis C virus, HCV replicon genotype 1b; read-out: EC50 (1b) Range
Property: EC50; scope: individual molecules

molecule | EC50
CO[C@H](CCOP1(=O)OC[C@H]2O[C@@H](n3ccc(=O)[nH]c3=O)[C@](C)(Cl)[C@@H]2O1)C(=O)OC(C)C (stereo partly drawn) [Compound 37A] | 0.25 to 1 µM
C#C[C@]1(C)[C@@H]2O[P@](=O)(OCCC(CC)C(=O)OC(C)C)OC[C@H]2O[C@H]1n1ccc(=O)[nH]c1=O (stereo partly drawn) [Compound 31B] | > 10 µM
CC(C)OC(=O)C(C)CCCO[P@@]1(=O)OC[C@H]2O[C@@H](n3ccc(=O)[nH]c3=O)[C@](C)(N)[C@@H]2O1 (stereo partly drawn) [Compound 34A] | > 10 µM

----------
System: replicon cells (1b-Con1)
Assay: Replicon activity assay (replicon RNA level by real-time RT-PCR, Taqman)
Assay type: cell-based
Details: Hepatitis C virus, HCV replicon genotype 1b; read-out: EC50 (1b) Range
Procedure: To measure cell-based anti-HCV activity of the compounds of the present invention, replicon cells (1b-Con1) are seeded at 5000 cells/well in 96-well plates one day prior to treatment with a compound of the invention. […] Cells are harvested three days post-dosing, and the replicon RNA level is determined using real-time RT-PCR (Taqman assay) with GAPDH RNA as endogenous control. EC50 values are calculated from experiments with 10 serial twofold dilutions of the inhibitor in triplicate. […]
pEC50: −log10 of the molar value.
Property: pEC50; scope: individual compounds

compound | pEC50
CC(CCO[P@@]1(=O)OC[C@H]2O[C@@H](n3ccc(=O)[nH]c3=O)[C@](C)(N)[C@@H]2O1)CC(=O)OC(C)C (stereo partly drawn) [Compound 21A] | < 5.00
C[C@@]1(N)[C@@H]2OP(=O)(OCCC3(C(=O)OC4CCCC4)CCC3)OC[C@H]2O[C@H]1n1ccc(=O)[nH]c1=O (stereo partly drawn) [Compound 29A] | < 5.00
CC(C)OC(=O)C1CC1CO[P@@]1(=O)OC[C@H]2O[C@@H](n3ccc(=O)[nH]c3=O)[C@](C)(N)[C@@H]2O1 (stereo partly drawn) [Compound 47A] | < 5.00
C#C[C@]1(C)[C@@H]2O[P@](=O)(OCC[C@@H](OC)C(=O)OC(C)C)OC[C@H]2O[C@H]1n1ccc(=O)[nH]c1=O [Compound 57B] | 5.00 to 6.00
CC(C)OC(=O)CC(C)(C)CO[P@@]1(=O)OC[C@H]2O[C@@H](n3ccc(=O)[nH]c3=O)[C@](C)(N)[C@@H]2O1 [Compound 17A] | < 5.00
CC(C)OC(=O)[C@H](C)CCO[P@@]1(=O)OC[C@H]2O[C@@H](n3cc(F)c4c(N)ncnc43)[C@](C)(Cl)[C@@H]2O1 [Compound 81A] | < 5.00
CCOC(=O)C1(CCO[P@]2(=O)OC[C@H]3O[C@@H](n4ccc(=O)[nH]c4=O)[C@](C)(N)[C@@H]3O2)CC1 [Compound 28B] | < 5.00
C#C[C@]1(C)[C@@H]2O[P@@](=O)(OCCC(CO)C(=O)OC(C)C)OC[C@H]2O[C@H]1n1ccc(=O)[nH]c1=O (stereo partly drawn) [Compound 44A] | < 5.00
C#C[C@]1(C)[C@@H]2O[P@](=O)(OC[C@H](NC(=O)OC)C(=O)OC(C)C)OC[C@H]2O[C@H]1n1ccc(=O)[nH]c1=O [Compound 40B] | < 5.00
C#C[C@@]1(O)[C@@H]2OP(=O)(OCCC(C)C(=O)OC(C)C)OC[C@H]2O[C@H]1n1ccc(=O)[nH]c1=O (stereo partly drawn) | 6.00 to 6.60
C#C[C@]1(C)[C@@H]2O[P@@](=O)(OCCC(C(=O)OC(C)C)C(C)C)OC[C@H]2O[C@H]1n1ccc(=O)[nH]c1=O (stereo partly drawn) [Compound 32A] | < 5.00
CC(C)OC(=O)C(C)(C)CO[P@@]1(=O)OC[C@H]2O[C@@H](n3ccc(=O)[nH]c3=O)[C@](C)(N)[C@@H]2O1 [Compound 15A] | < 5.00
C#C[C@]1(C)[C@@H]2O[P@@](=O)(OC[C@H](CC(=O)OC(C)C)OC(C)=O)OC[C@H]2O[C@H]1n1ccc(=O)[nH]c1=O [Compound 55A] | < 5.00
C#C[C@@]1(O)[C@@H]2OP(=O)(OCC[C@@H](C)C(=O)OC(C)C)OC[C@H]2O[C@H]1n1ccc(=O)[nH]c1=O (single isomer, unassigned) | 6.00 to 6.60
C#C[C@@]1(O)[C@@H]2OP(=O)(OCCC(C)C(=O)OC3CCCC3)OC[C@H]2O[C@H]1n1ccc(=O)[nH]c1=O (single isomer, unassigned) | 6.00 to 6.60
C#C[C@]1(C)[C@@H]2O[P@](=O)(OCC[C@@H](OC(C)=O)C(=O)OC(C)C)OC[C@H]2O[C@H]1n1ccc(=O)[nH]c1=O [Compound 50B] | 6.00 to 6.60
C#C[C@]1(C)[C@@H]2O[P@@](=O)(OCC[C@H](C)C(=O)OC(C)C)OC[C@H]2O[C@H]1n1cnc2c(N)ncnc21 [Compound 72A] | < 5.00
CC(C)OC(=O)C(C)CCOP1(=O)OC[C@H]2O[C@@H](n3ccc(=O)[nH]c3=O)[C@](C)(Cl)[C@@H]2O1 (single isomer, unassigned) [Compound 39B1] | ≥ 6.60
C#C[C@]1(C)[C@@H]2O[P@](=O)(OCCC(C)C(=O)OC3CCCCC3)OC[C@H]2O[C@H]1n1ccc(=O)[nH]c1=O (stereo partly drawn) [Compound 77B] | ≥ 6.60
C#C[C@]1(C)[C@@H]2OP(=O)(OCC(C)CC(=O)OC(C)C)OC[C@H]2O[C@H]1n1ccc(=O)[nH]c1=O (stereo partly drawn) | 5.00 to 6.00
CC(C)OC(=O)C(CCO[P@]1(=O)OC[C@H]2O[C@@H](n3ccc(=O)[nH]c3=O)[C@](C)(N)[C@@H]2O1)c1ccccc1 (stereo partly drawn) [Compound 33B] | < 5.00
C#C[C@@]1(OC(=O)CCC)[C@@H]2O[P@@](=O)(OCC[C@@H](C)C(=O)OC(C)C)OC[C@H]2O[C@H]1n1ccc(=O)[nH]c1=O | ≥ 6.60
CO[C@H](CO[P@]1(=O)OC[C@H]2O[C@@H](n3ccc(=O)[nH]c3=O)[C@](C)(N)[C@@H]2O1)CC(=O)OC(C)C [Compound 61B] | < 5.00
C#C[C@]1(C)[C@@H]2O[P@@](=O)(OCC(CC(=O)OC(C)C)N(C)C(=O)OC(C)(C)C)OC[C@H]2O[C@H]1n1ccc(=O)[nH]c1=O (stereo partly drawn) | < 5.00
